Would you kindly list [3H]CQ transport (% PfCRTDd2 control), trans-stimulation, PfCRTDd2 for each of these substances?
molecular target: PfCRT^Dd2 (Plasmodium falciparum, UniProt Q9N623, A220S/I356T/K76T/M74I/N326S/N75E/Q271E/R371I); assay: cell-based; type: cell-based; settings: trans-stimulation; [test solute]i = 45 mM (30 mM for some solutes due to solubility); PfCRT-mediated component (background subtracted); mean ± SEM; SEM
Sequence (Q9N623 whole entry A220S/I356T/K76T/M74I/N326S/N75E/Q271E/R371I): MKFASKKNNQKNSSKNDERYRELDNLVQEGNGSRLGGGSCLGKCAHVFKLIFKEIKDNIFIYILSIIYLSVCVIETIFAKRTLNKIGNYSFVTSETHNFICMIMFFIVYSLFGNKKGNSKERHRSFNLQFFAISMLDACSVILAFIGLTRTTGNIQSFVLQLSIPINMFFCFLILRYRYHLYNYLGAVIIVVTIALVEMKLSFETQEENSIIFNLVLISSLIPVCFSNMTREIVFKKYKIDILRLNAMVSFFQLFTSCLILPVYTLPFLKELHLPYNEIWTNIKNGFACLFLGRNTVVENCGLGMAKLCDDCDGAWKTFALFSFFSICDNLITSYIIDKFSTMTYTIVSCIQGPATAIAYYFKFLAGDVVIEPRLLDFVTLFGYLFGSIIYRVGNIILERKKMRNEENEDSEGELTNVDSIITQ
Give bare numbers, in % PfCRTDd2 control.

Consider the following illustrative entries.
- DMPNALS [DS-7, host-derived peptide upstream of PL-4]: 112
- DPENFR [DR-6]: 112
- HVDDMPN [HN-7]: 98
- HVDPEN [HN-6]: 113

Hey, quick one: what's [3H]CQ transport (% PfCRTDd2 control), trans-stimulation, PfCRTDd2 for each of these?
1. HAGEYG [HG-6]
2. DLDDALDK [DK-8]

# output
98
95

Take each entry in turn and give its [3H]CQ transport (% PfCRTDd2 control), trans-stimulation, PfCRTDd2.
1. VDEVGG [VG-6]
2. VLSPAD [VD-6]

# output
1: 112; 2: 98

# input Form field: reported [3H]CQ transport (% PfCRTDd2 control), trans-stimulation, PfCRTDd2 of LSFPTTK [LK-7]
# output 95

###

molecular target: PfCRT^Ecu1110 (Plasmodium falciparum, UniProt Q9N623, A220S/I356L/K76T/N326D); test: [3H]CQ uptake into Xenopus oocytes, cis-inhibition by unlabelled solute; type: cell-based; details: read-out: PfCRT-mediated [3H]CQ transport, cis-inhibition (% PfCRTEcu1110 control)
reported.endpoint: inhibition at 500 µM

Example results:
* N[C@@H](Cc1c[nH]c2ccccc12)C(=O)O | 96%
* N[C@@H](CCC(=O)O)C(=O)O | 92%

Give measured inhibition at 500 µM for every item shown.
1. N[C@@H](CO)C(=O)O
2. N[C@@H](Cc1c[nH]cn1)C(=O)O
3. N[C@@H](Cc1ccccc1)C(=O)O
4. O=C(O)[C@@H]1CCCN1
5. CC[C@H](C)[C@H](N)C(=O)O
6. N=C(N)NCCC[C@H](N)C(=O)O
7. CSCC[C@H](N)C(=O)O

# output
97%
95%
95%
98%
93%
98%
94%

Go through the items and report each one's inhibition at 500 µM.
1. CC(C)C[C@H](N)C(=O)O
2. N[C@@H](CS)C(=O)O
3. CC(C)[C@H](N)C(=O)O
4. N[C@@H](Cc1ccc(O)cc1)C(=O)O
5. NCCCC[C@H](N)C(=O)O
6. C[C@@H](O)[C@H](N)C(=O)O
7. C[C@H](N)C(=O)O

# output
1: 99%; 2: 94%; 3: 98%; 4: 96%; 5: 93%; 6: 94%; 7: 93%

###

Kindly state activity at 5000 µM for each of the entries shown.
molecular target: PfNT1 (Plasmodium falciparum); construct: expressed in transfected cells; host or cells: Xenopus laevis oocytes (stage V-VI), cRNA-injected; experiment: cell-based; assay type: cell-based; details: […], read-out: Uptake of [3H]CQ (% PfCRTDd2 control), trans-stimulation, PfNT1; SEM
Sequence (Q8IDM6 whole entry): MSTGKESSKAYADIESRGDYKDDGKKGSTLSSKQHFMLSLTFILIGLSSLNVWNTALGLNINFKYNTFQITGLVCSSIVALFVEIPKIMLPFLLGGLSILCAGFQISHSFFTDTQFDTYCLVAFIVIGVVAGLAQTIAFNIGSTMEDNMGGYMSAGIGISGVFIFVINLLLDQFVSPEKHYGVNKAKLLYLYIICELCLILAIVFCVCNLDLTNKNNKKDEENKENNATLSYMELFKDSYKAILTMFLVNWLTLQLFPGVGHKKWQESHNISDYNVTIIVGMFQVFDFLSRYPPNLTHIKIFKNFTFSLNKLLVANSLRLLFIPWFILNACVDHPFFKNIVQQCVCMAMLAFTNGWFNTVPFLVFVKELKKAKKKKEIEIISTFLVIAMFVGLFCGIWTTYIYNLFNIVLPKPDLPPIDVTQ
Reply with the number, then its unit.

Consider the worked cases shown below.
* O=C(O)[C@@H]1CCCN1 [L-proline] | 3.1%
* CSCC[C@H](N)C(=O)O [L-methionine] | 2.2%
* N[C@@H](Cc1ccc(O)cc1)C(=O)O [L-tyrosine] | 2.2%

Next:
# input Reported activity at 5000 µM, molecule N[C@@H](CCC(=O)O)C(=O)O [L-glutamic acid] : ____
# output 2.7%
